Test system: Fibroblast
runDescription: Incucyte cell viability with human fibroblast; also: unitless GR value; below 1 slowed growth and below 0 cell loss
Format: toxicity, cell-based
measurementSetup: 24 h, 10 µM, compound concentration 10 uM, replicate number 1
Kindly apply the following: satisfied if Growth Rate is less than 0.7, not satisfied in every other case.

{"columns": ["compound", "systemTested", "discreteLabel"],
 "data": [
  ["Cc1nc(Nc2ncc(C(=O)Nc3c(C)cccc3Cl)s2)cc(N2CCN(CCO)CC2)n1 [DASATINIB ANHYDROUS]", "Fibroblast", "not satisfied"],
  ["COc1ccc2nc3[nH]nc(C)c3c(NCCOCCO)c2c1", "Fibroblast", "satisfied"],
  ["CCNC(=O)c1noc(-c2cc(C(C)C)c(O)cc2O)c1-c1ccc(CN2CCOCC2)cc1", "Fibroblast", "satisfied"],
  ["CN(C)CCCN(CC[C@H](N)C(=O)O)C[C@H]1O[C@@H](n2cnc3c(N)ncnc32)[C@H](O)[C@@H]1O.O=C(O)C(F)(F)F", "Fibroblast", "not satisfied"],
  ["O=C(NCC(=O)N1CCCCC1)Nc1ccc2nnsc2c1", "Fibroblast", "satisfied"],
  ["CC(=O)N[C@@H](Cc1ccc(O)cc1)C(=O)N[C@H](C(=O)N[C@@H](C)C(=O)N[C@@H](CC(=O)O)C(=O)CCl)C(C)C", "Fibroblast", "satisfied"],
  ["COC(=O)C[C@@H]1N=C(c2ccc(Cl)cc2)c2c(sc(C)c2C)-n2c(C)nnc21", "Fibroblast", "not satisfied"],
  ["Cc1nc(-c2cnc(NC(C)C)n(C)c2=O)ccc1Oc1ccnc(-c2cnn(C)c2)c1", "Fibroblast", "satisfied"]
]}
